# experimentalParameters: in acetonitrile, 313.15 K
property: solubility (mole fraction)

> print(dat)
                       molsmiles                    property  readoutvalue
1  CC(=O)N[C@@H](CCC(N)=O)C(=O)O  solubility (mole fraction)      0.000194

###

# experimentalParameters: in n-propanol, 318.15 K
property: solubility (mole fraction)

> print(dat)
                       molsmiles  readoutvalue
1  CC(=O)N[C@@H](CCC(N)=O)C(=O)O      0.000594

###

# experimentalParameters: in 2-butanone, 303.15 K
property: solubility (mole fraction)

> print(dat)
                       molsmiles  readoutvalue
1  CC(=O)N[C@@H](CCC(N)=O)C(=O)O      0.000479
